pIC50: −log10 of the molar value.
Measured pIC50 (DGKα (Homo sapiens (Human)))
readout: pIC50

>  <molecule>
CC[C@@H]1CN(c2nc(=O)[nH]c3cn(CC#N)nc23)[C@@H](C)CN1C(C)c1ccc2nccnc2c1 (single isomer, unassigned) [Compound A183b]

>  <readout>
pIC50

>  <value operator>
<

>  <numeric result>
5.00

$$$$
>  <molecule>
CC[C@H]1CN(C(C)c2ccc(Cl)cn2)[C@H](CC)CN1c1cc(=O)n(C)c2cn(CC#N)nc12 (single isomer, unassigned) [Compound A360b]

>  <readout>
pIC50

>  <value operator>
=

>  <numeric result>
8.57

$$$$
>  <molecule>
CC[C@H]1CN(C(C)c2ccc(CN3CCC(F)(F)CC3)nc2)[C@H](CC)CN1c1cc(=O)n(C)c2cn(CC#N)nc12 (single isomer, unassigned) [Compound A381b]

>  <readout>
pIC50

>  <value operator>
=

>  <numeric result>
5.68

$$$$
